Reported speed of sound values follow for various compounds
cond: 325.9 K; 101.33 kPa; Liquid; Pulse-echo method
Numbers after ± are expanded uncertainties.
Answer with the value and then the unit.

Example compounds with recorded speed of sound:
In [3]: df
Out[3]:
                                   compound     metric_name    endpoint_value
0  CCCC(=O)[O-].C[NH2+]CCO [N-methyl-2-hydroxyethylammonium butanoate]  speed of sound  1527.7 ± 2.1 m/s
1  CC(C)C(=O)[O-].C[NH2+]CCO [2-hydroxy-N-methylethanaminium isobutyrate]  speed of sound  1532.8 ± 2.1 m/s
2  C[NH2+]CCO.O=C[O-] [2-hydroxy-N-methylethanaminium formate]  speed of sound  1761.4 ± 2.2 m/s

Give its speed of sound value. Item: CCCCC(=O)[O-].C[NH2+]CCO [2-hydroxy-N-methylethanaminium pentanoate] 1463.1 ± 2.1 m/s

Give its speed of sound value. Item: CCC(=O)[O-].C[NH2+]CCO [2-hydroxy-N-methylethanaminium propionate] 1607.7 ± 2.1 m/s

* * *

cond: 309.4 K; 101.33 kPa; Liquid; Vibrating tube method
metric name: mass density (kg/m3)
Please reply with the bare figure in kg/m3 and do not write the unit itself.

Example molecules with recorded mass density:
In [3]: df
Out[3]:
                                   molecule   metric_name  unit_descriptor  endpoint_value
0  CCCC(=O)[O-].C[NH2+]CCO [N-methyl-2-hydroxyethylammonium butanoate]  mass density            kg/m3         1031.69
1  C[NH2+]CCO.O=C[O-] [2-hydroxy-N-methylethanaminium formate]  mass density            kg/m3         1121.97
2  CC(C)C(=O)[O-].C[NH2+]CCO [2-hydroxy-N-methylethanaminium isobutyrate]  mass density            kg/m3         1036.11
3  CCCCC(=O)[O-].C[NH2+]CCO [2-hydroxy-N-methylethanaminium pentanoate]  mass density            kg/m3         1008.67
4  CCC(=O)[O-].C[NH2+]CCO [2-hydroxy-N-methylethanaminium propionate]  mass density            kg/m3         1063.97

Okay, now this molecule:
Give its mass density value. Item: CC(=O)[O-].C[NH2+]CCO [N-methyl-2-hydroxyethylammonium acetate] 1094.07

* * *

cond: 322.91 K; 101.33 kPa; Liquid; Vibrating tube method
metric name: mass density (kg/m3)
Please reply with the bare figure in kg/m3 and do not write the unit itself.

Example compounds with recorded mass density:
>>> print(df.to_string())
                                   compound  endpoint_value
0  CCCCC(=O)[O-].C[NH2+]CCO [2-hydroxy-N-methylethanaminium pentanoate]         999.412
1  CC(=O)[O-].C[NH2+]CCO [N-methyl-2-hydroxyethylammonium acetate]         1085.77

Give its mass density value. Item: CCC(=O)[O-].C[NH2+]CCO [2-hydroxy-N-methylethanaminium propionate] 1054.99

Give its mass density value. Item: C[NH2+]CCO.O=C[O-] [2-hydroxy-N-methylethanaminium formate] 1114.47

Give its mass density value. Item: CCCC(=O)[O-].C[NH2+]CCO [N-methyl-2-hydroxyethylammonium butanoate] 1022.43

Give its mass density value. Item: CC(C)C(=O)[O-].C[NH2+]CCO [2-hydroxy-N-methylethanaminium isobutyrate] 1027.2
